- subjectOfTest: Cathepsin K (Oryctolagus cuniculus)
- Sequence (P43236 whole entry): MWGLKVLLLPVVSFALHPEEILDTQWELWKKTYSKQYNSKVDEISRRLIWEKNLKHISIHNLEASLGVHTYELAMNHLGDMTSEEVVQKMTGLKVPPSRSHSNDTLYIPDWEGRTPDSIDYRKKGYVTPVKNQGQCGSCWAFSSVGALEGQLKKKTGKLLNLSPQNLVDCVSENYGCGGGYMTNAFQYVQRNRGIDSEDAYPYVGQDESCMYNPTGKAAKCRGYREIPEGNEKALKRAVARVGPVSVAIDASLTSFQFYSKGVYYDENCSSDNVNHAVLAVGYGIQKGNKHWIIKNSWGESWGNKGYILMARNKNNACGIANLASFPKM
- assayOverview: In Vitro Enzyme Inhibition Assay and Bone-Resorption Assay
- condition: pH 5.5; 22 °C
Give pEC50 for every item shown.
Keep it numeric: pEC50 is minus log10 of the concentration in mol/L.

Ask: Query (compound): `CSc1ccc(-c2nc(C)sc2[C@@H]2CCC(F)(F)C[C@H]2C(=O)NCC#N)cc1` ; field requested: pEC50
Result: 7.77

Ask: Query (compound): `CSc1ccc(-c2c[n+]([O-])ccc2[C@@H]2CCC(F)(F)C[C@H]2C(=O)NCC#N)cc1` ; field requested: pEC50
Result: 7.12

Ask: Query (compound): `CSc1ccc(-c2ncccc2[C@@H]2CCC(F)(F)C[C@H]2C(=O)NCC#N)cc1` ; field requested: pEC50
Result: 8.00

Ask: Query (compound): `CSc1ccc(-c2cnccc2[C@@H]2CCC(F)(F)C[C@H]2C(=O)NCC#N)cc1` ; field requested: pEC50
Result: 7.74

###

- subjectOfTest: Cathepsin K (Oryctolagus cuniculus, UniProt P43236)
- assayOverview: In Vitro Enzyme Inhibition Assay and Bone-Resorption Assay
- condition: pH 5.5; 22 °C
- Description: Prior to the addition of substrate, different concentrations of the inhibitor ranging from 100 uM to 0.2 nM were preincubated for 15 min with enzyme to allow the establishment of the enzyme-inhibitor complex. The proteolytic cleavage of N-acyl aminocoumarins by cathepsins was conducted in 96-well plate format and the plate read using a Spectramax (Molecular Devices) plate reader. […] The percent inhibition of the reaction was calculated from a control reaction containing only vehicle. […]
observable: pEC50
Keep it numeric: pEC50 is minus log10 of the concentration in mol/L.

Ask: Query (molecule): `CSc1ccc(-c2c([C@@H]3CCC(F)(F)C[C@H]3C(=O)NCC#N)nnn2Cc2ccccc2)cc1` ; field requested: pEC50
Result: 7.48

Ask: Query (molecule): `N#CCNC(=O)[C@@H]1CC(F)(F)CC[C@H]1c1cnccc1-c1ccc(SCF)cc1` ; field requested: pEC50
Result: 7.24

Ask: Query (molecule): `CSc1ccc(-c2c[nH]c(=O)cc2[C@@H]2CCC(F)(F)C[C@H]2C(=O)NCC#N)cc1` ; field requested: pEC50
Result: 7.70

Ask: Query (molecule): `CSc1ccc(-c2c([C@@H]3CCC(F)(F)C[C@H]3C(=O)NCC#N)cc[nH]c2=O)cc1` ; field requested: pEC50
Result: 7.08

Ask: Query (molecule): `CSc1ccc(-c2cn(C)nc2[C@@H]2CCC(F)(F)C[C@H]2C(=O)NCC#N)cc1` ; field requested: pEC50
Result: 7.39

Data credit: BindingDB's records for doi:10.1016/j.bmcl.2007.03.028
